B1: library; a variant is named by its letters at N, in order (parent)
chain: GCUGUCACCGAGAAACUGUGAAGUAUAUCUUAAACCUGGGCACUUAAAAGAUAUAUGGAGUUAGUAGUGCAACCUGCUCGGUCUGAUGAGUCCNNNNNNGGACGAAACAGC

Variants of: B1
Experiment: FACS-Seq fitted mean relative fluorescence mCherry/BFP with ligand (log10 relative fluorescence); HEK293T; ligand: cyclic di-GMP (c-di-GMP-II aptamer); ligand concentration (+) FACS-Seq: 1 mM; higher = higher reporter protein expression
Settings: ligand present: yes
Class assignment keyed on FACS-Seq fitted mean (log10), ranges low interval = under -0.1, middle interval = from -0.1 up to 0.04, high interval = 0.04 and over

# input Could you place ACAGCG in its proper category? Many thanks.
# output middle interval

# input Could you place AUAAUA in its proper category? Many thanks.
# output low interval

# input Could you place CGGUAU in its proper category? Many thanks.
# output low interval

# input Could you place UAGAAA in its proper category? Many thanks.
# output middle interval

# input Could you place GUCAGG in its proper category? Many thanks.
# output low interval

# input Could you place CCGGAC in its proper category? Many thanks.
# output middle interval

# input Could you place GUCUGU in its proper category? Many thanks.
# output high interval

# input Could you place GUUUAU in its proper category? Many thanks.
# output low interval

# input Could you place AAAGUU in its proper category? Many thanks.
# output high interval

# input Could you place GCACUC in its proper category? Many thanks.
# output high interval

# input Could you place GCAAUC in its proper category? Many thanks.
# output low interval

# input Could you place GUUCAU in its proper category? Many thanks.
# output low interval

# input Could you place CCAGUU in its proper category? Many thanks.
# output high interval

# input Could you place CUCUAC in its proper category? Many thanks.
# output middle interval

# input Could you place AACGCC in its proper category? Many thanks.
# output high interval

# input Could you place ACUACA in its proper category? Many thanks.
# output high interval

# input Could you place CGCAUA in its proper category? Many thanks.
# output low interval

# input Could you place AGCUCG in its proper category? Many thanks.
# output high interval

# input Could you place CUCUAU in its proper category? Many thanks.
# output middle interval

# input Could you place ACGGUA in its proper category? Many thanks.
# output middle interval
